Biological target: STK16 (human) (UniProt O75716)
Sequence (O75716 whole entry, looked up): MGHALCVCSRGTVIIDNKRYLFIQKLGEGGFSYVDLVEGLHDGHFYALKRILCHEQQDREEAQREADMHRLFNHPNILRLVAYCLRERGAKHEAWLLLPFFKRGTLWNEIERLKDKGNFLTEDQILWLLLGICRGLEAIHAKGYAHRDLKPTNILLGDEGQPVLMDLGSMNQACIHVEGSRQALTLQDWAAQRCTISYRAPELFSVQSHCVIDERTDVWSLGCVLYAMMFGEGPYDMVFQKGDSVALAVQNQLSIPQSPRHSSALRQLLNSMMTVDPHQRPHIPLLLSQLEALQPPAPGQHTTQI
Assay: radiometric filter-binding kinase assay, Kinase HotSpot
Settings: compound 0.5 µM; ATP 10 µM
Could you please report measured residual activity for the items listed next?
One number for each entry, in %.

Worked examples, 6 molecules total:
[
  {
    "item.smiles": "NC(=O)c1cccc(-c2cc(Nc3ccc(OC(F)(F)F)cc3)ncn2)c1",
    "target": "STK16 (human) (UniProt O75716)",
    "experimental.endpoint": "residual activity",
    "result.unit": "%",
    "recorded.number": 81.8
  },
  {
    "item.smiles": "Ic1cccc(CSc2nnc(-c3ccncc3)o2)c1",
    "target": "STK16 (human) (UniProt O75716)",
    "experimental.endpoint": "residual activity",
    "result.unit": "%",
    "recorded.number": 110
  },
  {
    "item.smiles": "COc1ccc2c(c1)/C(=C/c1cnc[nH]1)C(O)=N2",
    "target": "STK16 (human) (UniProt O75716)",
    "experimental.endpoint": "residual activity",
    "result.unit": "%",
    "recorded.number": 76.2
  },
  {
    "item.smiles": "CN(C)c1ccc(/C=C2\\C(=O)Nc3ccccc32)cc1",
    "target": "STK16 (human) (UniProt O75716)",
    "experimental.endpoint": "residual activity",
    "result.unit": "%",
    "recorded.number": 87.9
  },
  {
    "item.smiles": "COc1cc2ncnc(Nc3ccc(OCc4ccccc4)cc3)c2cc1OC",
    "target": "STK16 (human) (UniProt O75716)",
    "experimental.endpoint": "residual activity",
    "result.unit": "%",
    "recorded.number": 106
  },
  {
    "item.smiles": "c1ccc2c(-c3ccncc3)c[nH]c2c1",
    "target": "STK16 (human) (UniProt O75716)",
    "experimental.endpoint": "residual activity",
    "result.unit": "%",
    "recorded.number": 110
  }
]

Give residual activity for each listed item.
1. C[C@@H]1CCN(C(=O)CC#N)C[C@@H]1N(C)c1ncnc2[nH]ccc12
2. COc1cc2ncnc(Nc3ccc(Oc4ccccc4)cc3)c2cc1OC
3. Cc1nc(-c2ccccc2)c(-c2ccncc2)o1

Result block:
1: 94.7; 2: 107; 3: 109

Give residual activity for each listed item.
1. COc1ccc(S(=O)(=O)N(CCO)c2ccccc2CN(C)C/C=C/c2ccc(Cl)cc2)cc1
2. COc1cc(Nc2c(C#N)cnc3cc(OCCCN4CCN(C)CC4)c(OC)cc23)c(Cl)cc1Cl
3. Fc1ccc(-c2nc3n(c2-c2ccncc2)CCS3)cc1
4. N#Cc1c[nH]c2c[nH]/c(=N\Cc3cccnc3)cc2/c1=N\c1ccc(F)c(Cl)c1
5. O=C1c2ccccc2-c2nc3nnnn3nc21

Result block:
1: 102; 2: 85.1; 3: 106; 4: 93.8; 5: 80.5

Give residual activity for each listed item.
1. Cc1cccc(-c2nc(C(C)(C)C)[nH]c2-c2ccc3c(c2)OCO3)n1
2. COc1ccc(C(=O)Nc2sc3c(c2C(N)=O)CCCC3)cc1OC
3. COc1ccc2c(c1)c(C1=C(c3c[nH]c4ccccc34)C(=O)NC1=O)cn2CCCN(C)C

Result block:
[90.1, 106, 93.1]

Give residual activity for each listed item.
1. COc1ccc(Cl)cc1NC(=O)Nc1cc(C)nc2ccccc12
2. Cn1c2ccccc2c2c3c(c4c5ccccc5n(CCC#N)c4c21)CNC3=O
3. CN(C)S(=O)(=O)c1ccc2c(c1)/C(=C/c1cc3c([nH]1)CCCC3)C(=O)N2

Result block:
1: 105; 2: 81.1; 3: 104

Give residual activity for each listed item.
1. N#C/C(=C\c1ccc(O)c(O)c1)C(=O)NCc1ccccc1
2. CO[C@@H]1[C@H](N(C)C(=O)c2ccccc2)C[C@H]2O[C@]1(C)n1c3ccccc3c3c4c(c5c6ccccc6n2c5c31)C(=O)NC4

Result block:
99.1
47.9
